experiment: viability loss with induced miR-34 in A549 – imaging, A549 dox-inducible miR-34, nuclei and caspase counts, primary screen (AID 1347080); details: A549 miR-34 inducible, Hoechst nuclei count, 48 h; measured here: total cells without miR-34 induction; also: test concentration not given here
metric: cell count
Respond numerically, and do not add a unit to the figure.

### Prompt Which measured cell count value corresponds to `c1ccc(CN2CCC3(CCCc4ccccc43)CC2)cc1` ?
### Response 6160

### Prompt cell count lookup needed for CC(C)(C)NCC(O)COc1cccc2c1CC(O)C(O)C2 (stereo not drawn) , thanks.
### Response 10100

### Prompt Consider the compound shown here: CCCN(CCc1cccs1)C1CCc2c(O)cccc2C1 (stereo not drawn) What is its recorded cell count?
### Response 9500

### Prompt Fill in: cell count of NC(CCCP(=O)(O)O)C(=O)O (stereo not drawn) is ___
### Response 9550

### Prompt Look up cell count: `N#CC(C#N)=C(N)/C(C#N)=C/c1ccc2[nH]ccc2c1`
### Response 5030

### Prompt Any idea what cell count was measured for CC(C)(C)NC(=O)C1CN(Cc2cccnc2)CCN1CC(O)CC(Cc1ccccc1)C(=O)NC1c2ccccc2CC1O (stereo not drawn) ?
### Response 9700

### Prompt Please give the measured cell count for this compound: CCCC1CC(C(=O)NC(C(C)O)[C@@H]2OC(SC)C(O)C(O)C2O)N(C)C1 (stereo partly drawn)
### Response 10500

### Prompt Query: cell count; subject: COC(=O)[C@@H]1CC(=O)O[C@H](C)C/C=C/C=C/[C@H](O)[C@H](C)C[C@H](CC=O)[C@H](OC2O[C@H](C)[C@@H](OC3C[C@@](C)(O)[C@@H](OC(=O)CC(C)C)[C@H](C)O3)[C@H](N(C)C)[C@H]2O)[C@H]1OC (stereo partly drawn)
### Response 12600

### Prompt Look at this compound and give its reported cell count. `O[C@H]1[C@H](O)[C@@H](O)[C@@H]2O[C@@H]2[C@@H]1O`
### Response 11800

### Prompt Entry under review: `CNCCNS(=O)(=O)c1cccc2cnccc12` . Reported cell count?
### Response 10200

### Prompt Name the recorded cell count for `Brc1c(Br)c(Br)c2[nH]cnc2c1Br` .
### Response 3380

### Prompt Which cell count value is on record for CCCCC/C=C\CC1OC1CCCCCCCC(=O)O (stereo not drawn) ?
### Response 5850

### Prompt # query: cell count of entry `CCCCC/C=C\C/C=C\CCCCCCCC(=O)NCC(=O)O`
### Response 6540

### Prompt Can you look up the measured cell count of `CC=C1C2C=C(C)C[C@]1(N)c1ccc(=O)[nH]c1C2` for me?
### Response 11400

### Prompt cell count lookup needed for `COc1ccc([C@H]2Sc3ccccc3N(CCN(C)C)C(=O)[C@H]2OC(C)=O)cc1` , thanks.
### Response 5500

### Prompt Which measured cell count value corresponds to `C[C@@]12CCC3=C4CCC(=O)C=C4CC[C@H]3[C@@H]1CC[C@@]2(O)CC#N` ?
### Response 8010

### Prompt Param item = `CC/C=C\C/C=C\C/C=C\C/C=C\C/C=C\C/C=C\CCC(=O)O[C@H](COCCCCCCCCCCCCCCCC)COP(=O)([O-])OCC[N+](C)(C)C` ; retrieve measured cell count.
### Response 5380

### Prompt # cell count lookup, item `Nc1[nH]c(=O)[nH]c(=O)c1N`
### Response 9960

### Prompt Can you share its cell count? I mean this compound: `N#C/C(=C/c1ccc(O)c(O)c1)C(=O)OC/C=C/c1ccccc1`
### Response 4020

### Prompt Which cell count value is on record for `CN(C)Cc1ccc(S(=O)(=O)n2ccc(C=CC(=O)NO)c2)cc1` ?
### Response 1910

### Prompt Dear colleague, I am looking for the recorded cell count of the following compound: `CC(=O)NCCc1ccc(S(N)(=O)=O)cc1`
### Response 8540

### Prompt Could you share which cell count value was measured for `CC(=O)O[C@@]1(C(C)=O)CC[C@H]2[C@@H]3C=C(C)C4=CC(=O)CC[C@]4(C)[C@@H]3CC[C@@]21C` ?
### Response 7070

### Prompt # cell count lookup, item `CCNC(=O)c1[nH]nc(-c2cc(Cl)c(O)cc2O)c1-c1ccc(OC)cc1`
### Response 2740

### Prompt Requested read-out: cell count. Entry: `CCCCC/C=C\C\C=C/C=C/C=C/[C@@H](SC[C@H](NC(=O)CC[C@H](N)C(=O)O)C(=O)NCC(=O)O)[C@@H](O)CCCC(=O)O`
### Response 5930

### Prompt Quick one: cell count of `NC(=O)c1cncc(Br)c1` ?
### Response 9990

### Prompt Query: cell count; subject: O=C(O)CCCCC1SC[C@@H]2NC(=O)N[C@H]12 (stereo partly drawn)
### Response 9250

### Prompt I am curious: what cell count value has been reported for CCC(C)[C@H]1O[C@]2(CC[C@@H]1C)C[C@@H]1C[C@@H](C/C=C(\C)[C@@H](OC3C[C@H](OC)C(O[C@H]4C[C@H](OC)[C@@H](O)[C@H](C)O4)[C@H](C)O3)[C@@H](C)/C=C/C=C3\CO[C@@H]4[C@H](O)C(C)=C[C@@H](C(=O)O1)[C@]34O)O2 (stereo partly drawn) ?
### Response 4580

### Prompt Quick one: cell count for COC1C=CO[C@@]2(C)Oc3c(C)c(O)c4c(O)c(c5c(nc6cc(C)ccn65)c4c3C2=O)NC(=O)C(C)=CC=CC(C)C(O)C(C)C(O)C(C)C(OC(C)=O)C1C (stereo partly drawn) ?
### Response 10000

### Prompt Any idea what its cell count is? The compound is CC(C)n1c(C=CC(O)CC(O)CC(=O)O)c(-c2ccc(F)cc2)c2ccccc21 (stereo not drawn)
### Response 1410

### Prompt What cell count value was documented for this compound, `Clc1ccc2ncnc(NCc3ccc4c(c3)OCO4)c2c1` ?
### Response 3760

### Prompt Quick one: cell count of `CC(C)(C)n1nc(Cc2cccc3ccccc23)c2c(N)ncnc21` ?
### Response 5010

### Prompt Given the entry CNS(=O)(=O)c1ccc(NC(=O)c2ccccc2C(=O)O)cc1 (tested in a mixture with another compound) , report its measured cell count.
### Response 12700

### Prompt Given the compound `Cc1cc(C(=O)N2CCc3[nH]nc(COc4ccccc4)c3C2)c(C)o1` , what is its reported cell count?
### Response 9410

### Prompt Can you share its cell count? I mean this compound: COc1cc(C2Oc3ccc(C4Oc5cc(O)cc(O)c5C(=O)C4O)cc3OC2CO)ccc1O (stereo not drawn)
### Response 8840

### Prompt Look up cell count: CN1CCc2cc(Cl)c(O)cc2C(c2ccccc2)C1 (stereo not drawn)
### Response 9300

### Prompt Any idea what its cell count is? The compound is `CS(=O)(=O)Nc1ccc(C(=O)O)cc1`
### Response 9650

### Prompt Which cell count is listed for `COc1ccc2c(c1)CCN(C(=O)Nc1n[nH]c(-c3ccco3)n1)C2` ?
### Response 9130

### Prompt So what's the measured cell count for this one? OC(c1cc(C(F)(F)F)nc2c(C(F)(F)F)cccc12)[C@H]1CCCCN1 (stereo partly drawn)
### Response 6090
